- test_name: Rat serum pharmacokinetics after 1.5-hour IV infusion
- Type: in vivo
- condition_info: 1.5-hour IV infusion in 0.9% saline, dose (mg/kg) differs per compound, two-compartment model
assay_endpoint: Cmax (ng/mL)

>>> endpoint_result("Cl.Cl.Cl.Cl.NCCN(CCN)C(=O)C[C@H](N)C(=O)N[C@H](CCc1ccccc1)C(=O)Nc1cnc2ccccc2c1 [Compound 48]")
7200
>>> endpoint_result("NCCN(CCN)C(=O)C[C@H](N)C(=O)NCC(=O)N(Cc1ccc(C(F)(F)F)cc1)c1cnc2ccccc2c1 [Compound 357]")
660
>>> endpoint_result("CC(C)Oc1ccc(NC(=O)[C@H](CCc2ccccc2)NC(=O)[C@@H](N)CC(=O)N(CCN)CCN)cc1 [Compound 214]")
1540
>>> endpoint_result("NCCN(CCN)C(=O)C[C@H](N)C(=O)N[C@@H](CCc1ccccc1)C(=O)NCc1ccc(OC(F)(F)F)cc1 [Compound 95]")
1750
>>> endpoint_result("CCOc1c(F)cc(NC(=O)[C@H](CCc2ccccc2)NC(=O)[C@@H](N)CC(=O)N(CCN)CCN)cc1F.Cl.Cl.Cl [Compound 352]")
2440

(I) Cc1cc(C)c(NC(=O)[C@H](CCc2ccccc2)NC(=O)[C@@H](N)CC(=O)N(CCN)CCN)c(C)c1 [Compound 88]
(II) NCCN(CCN)C(=O)C[C@H](N)C(=O)N[C@@H](CCc1ccccc1)C(=O)NCc1ccc(OC2CCOCC2)cc1 [Compound 133]
(III) NCCN(CCN)C(=O)C[C@H](N)C(=O)N[C@@H](CCc1ccccc1)C(=O)Nc1cc(Cl)c(Cl)cc1Cl [Compound 87]
(IV) NCCN(CCN)C(=O)C[C@H](N)C(=O)N[C@@H](CCc1ccccc1)C(=O)NCc1ccc(F)c(C(F)(F)F)c1 [Compound 102]
In: Could you please order the items by Cmax, going from the lowest number to the highest? Give me the labels in the order the question wants.
Out: II, I, IV, III
(II: 1270 ng/mL, I: 2500 ng/mL, IV: 5050 ng/mL, III: 11000 ng/mL)
